Assay: Identification of proteins required for the processing of the EWS-FLI1 nascent transcript;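 further: robust z of luciferase light less the median z of siRNAs with the same seed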
Conditions: TC32 Ewing sarcoma NR0B1-luc vs CMV-luc, 48 h; screened at 20 nM (by protocol)
The full ranking holds about 59,000 sequences; the median of the read-out is about -0.00055, and the lowest 2% start at about -2. This excerpt belongs to a sample that is enriched for the lowest values.
reported-endpoint: seed-corrected z-score
Answers are plain numbers.

Some sequences with recorded seed-corrected z-score:
| seq | reported-endpoint | observed-measurement |
| --- | --- | --- |
| UACUGAAUCACUCCCUUGA against GALK1 | seed-corrected z-score | -0.0112 |
| UCUGUAUCAAUGAUUAAAC against ICE2 | seed-corrected z-score | 0.6 |
| UUGGUAGAUAUGAUCUUCG against TCEA3 | seed-corrected z-score | 0.375 |
| AAGUGGAACCGAUACUUCC against SPDYE14P | seed-corrected z-score | -0.205 |
| UUCAGCAUCUUUGUCGACC against RTFDC1 | seed-corrected z-score | -0.168 |

# batch size: 6; output seed-corrected z-score per entry
1. UUGUAGACGAGCUGGAUGC against ADAMTSL5
2. AUAUCAAUGAUUGAGAGGU against OR4F15
3. AAUGUUAACGAUGAAGAAG against ADRB2
4. AGAUGUUCCACACUCUGCC against C1orf95
5. UGAAAGCGCAGAUCUGUCU against HIST1H3G
6. UUGCGAACAUUGCCUGUGC against MEP1A

1. -0.759
2. 0.359
3. 0.292
4. -3.59
5. -0.148
6. 0.216

Each sequence below has a reported value. Please supply its seed-corrected z-score.
1. AUAGUUCCCUCGAUGAGGC against CCS
2. UAUGACAUCGGAGACCUUC against MEN1
3. UGACCGUUUCGGAUGAUGG against ATP2B4
4. UUCUAAUCUAGUGAUUAGC against LDB2
5. AAUGGACCUAGAUUUCAGG against C16orf59
6. UUUUCAAACAGGUAACAGC against ATM
7. UAACUUAUCUAAACUACUC against SPAG9
8. UAGUCAACGUUGGACACGG against PRR22

0.322
0.259
0.168
0.172
1.27
0.359
-0.547
0.319

For each entry beneath this line, provide reported seed-corrected z-score.
1. UCCAUUUCAGGAGCUACGC against OTULIN
2. ACAGGGACUUGAACUGGGC against IFNL3
3. UAAAUAAUAUUGCACAUAC against FAM228A

1: -2.32; 2: -2.31; 3: 0.618

Quick batch: seed-corrected z-score for everything below.
1. UCCAAGAUGAUUCCUCUCC against ZNF557
2. UAACGAAUAAUCAUCUUCC against ICE1
3. AAUGUAAGGCCUUAAAUCG against MRPS27

[-0.0489, 0.115, 0.696]

Give seed-corrected z-score for each of the items listed below.
1. UUAUUGUCAAGUUCUGAUG against EFCAB14
2. UAGACUGUCACGUUGUAUG against SEZ6L

[0.0178, 0.278]

* * *

Could you please report measured seed-corrected z-score for the items listed next?
Experiment: Identification of proteins required for the processing of the EWS-FLI1 nascent transcript;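 further: robust z of luciferase light less the median z of siRNAs with the same seed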
Details: TC32 Ewing sarcoma NR0B1-luc vs CMV-luc (EWS-FLI1 target promoter against control promoter), 48 h; screened at 20 nM (by protocol)
The full ranking holds about 59,000 sequences; the median of the read-out is about -0.00055, and the lowest 2% start at about -2. This is one part of a sample in which the lowest values are shown more often than they occur.
One number for each entry.

Solved cases (6 shown):
| seq | seed-corrected z-score |
| --- | --- |
| UCUAUGUCGGGAUCGGUGC against LINC00467 | 0.416 |
| UAUUAUUGUCUGGAACAUC against C12orf57 | 0.301 |
| UGUGGAAACAUUGAUCUGC against PRPF4 | -1.56 |
| UCCACGAAUAGCAAGUUGC against H2AFZ | 0.129 |
| UGUUGUAGUAGUAACGCAG against LOC390937 | -3.19 |
| AAUGUUGUCAUAGCCGAUG against PSTPIP2 | -0.92 |

I would be grateful if you could provide seed-corrected z-score for each of the following entries.
1. UGUCGUCAAAGUAUAAUCG against ETV5
2. UUUCCUCUUAGUCAACUUC against CHIC1
3. UGAGGAGCGACAAUCUUCC against TFAP2C

1. -2.12
2. -0.602
3. -0.276
